Hey, just so you know, these numbers are from paper PMC9458148.

- tested-on: UniProt C7FF04
- assay: Tyrosinase assay (inhibitory activity, L-tyrosine substrate, product detected at 475 nm)
- Format: biochemical
- Set-up: purchased Sigma–Aldrich T3824
- study-conditions: 50 μM compound; tested three times

molecule	Inhibitory Ratio at 50 μM, %
OC[C@H]1O[C@@H](Oc2cc3c(O)cc(O)cc3[o+]c2-c2cc(O)c(O)c(O)c2)[C@H](O)[C@@H](O)[C@H]1O [Compound 3, delphinidin 3-O-galactoside]	55.2
OC[C@H]1O[C@@H](Oc2cc3c(O)cc(O)cc3[o+]c2-c2cc(O)c(O)c(O)c2)[C@H](O)[C@@H](O)[C@@H]1O [Compound 5, delphinidin 3-O-glucoside]	47.5
OC[C@H]1O[C@@H](Oc2cc3c(O)cc(O)cc3[o+]c2-c2ccc(O)c(O)c2)[C@H](O)[C@@H](O)[C@@H]1O [Compound 4, kuromanin (cyanidin 3-O-glucoside)]	−1.9
COc1cc(-c2[o+]c3cc(O)cc(O)c3cc2O[C@@H]2O[C@H](CO)[C@@H](O)[C@H](O)[C@H]2O)cc(O)c1O [Compound 2, petunidin 3-O-glucoside]	69.2
OC[C@H]1O[C@@H](Oc2cc3c(O)cc(O)cc3[o+]c2-c2ccc(O)cc2)[C@H](O)[C@@H](O)[C@@H]1O	6.5

----------
- tested-on: Tyrosinase (Agaricus bisporus, UniProt C7FF04)
- Sequence (C7FF04 1-392 limits assumed): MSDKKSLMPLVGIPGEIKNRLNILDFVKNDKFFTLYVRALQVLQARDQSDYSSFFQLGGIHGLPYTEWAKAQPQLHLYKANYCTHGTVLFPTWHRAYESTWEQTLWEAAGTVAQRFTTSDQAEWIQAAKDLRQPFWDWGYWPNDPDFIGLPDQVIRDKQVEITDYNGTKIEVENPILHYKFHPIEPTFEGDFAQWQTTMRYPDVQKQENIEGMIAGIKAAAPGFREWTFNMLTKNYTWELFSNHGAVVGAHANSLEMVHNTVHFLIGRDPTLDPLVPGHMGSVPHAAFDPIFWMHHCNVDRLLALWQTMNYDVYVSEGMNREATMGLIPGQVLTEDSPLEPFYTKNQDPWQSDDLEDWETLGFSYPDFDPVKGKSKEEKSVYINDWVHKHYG
- assay: Tyrosinase assay (inhibitory activity, L-tyrosine substrate, product detected at 475 nm)
- Format: biochemical
- Parameters: purchased Sigma–Aldrich T3824
pIC50: −log10 of the molar value.

compound	pIC50
Oc1cc(O)c2ccc(-c3ccc(O)c(O)c3)[o+]c2c1 [Compound 1, luteolinidin]	5.43

----------
- tested-on: Tyrosinase (Agaricus bisporus, UniProt C7FF04)
- assay: Tyrosinase assay (inhibitory activity, L-tyrosine substrate, product detected at 475 nm)
- Type: biochemical
- Design: purchased Sigma–Aldrich T3824
- study-conditions: Mean ± SEM; tested three times; read-out: IC50

molecule	uom	IC50
OC[C@H]1O[C@@H](Oc2cc3c(O)cc(O)cc3[o+]c2-c2cc(O)c(O)c(O)c2)[C@H](O)[C@@H](O)[C@H]1O [Compound 3, delphinidin 3-O-galactoside]	µM	41.3
COc1cc(-c2[o+]c3cc(O)cc(O)c3cc2O[C@@H]2O[C@H](CO)[C@@H](O)[C@H](O)[C@H]2O)cc(O)c1O [Compound 2, petunidin 3-O-glucoside]	µM	10.3
